- System: Fusarium oxysporum
- assay.notes: Antifungal activity against Fusarium oxysporum at 75 ug/ml after 48 hrs by agar well diffusion method
- Format: functional
- measurement.parameters: read-out: DIZ
zone of inhibition at 75 µg/mL of 20 mm or higher: met. Under 20 mm: not met.

stdin: Reported zone of inhibition at 75 µg/mL at or above 20 mm? `COc1cc(/C=N/Nc2nc3cccc(C)c3s2)ccc1O`
stdout: not met

stdin: Reported zone of inhibition at 75 µg/mL at or above 20 mm? `Cc1cccc2nc(N/N=C/c3ccc(Cl)cc3Cl)sc12`
stdout: met

stdin: Reported zone of inhibition at 75 µg/mL at or above 20 mm? `COc1cc(/C=N/Nc2nc3cccc(C)c3s2)cc(Br)c1O`
stdout: not met

stdin: Reported zone of inhibition at 75 µg/mL at or above 20 mm? `Cc1cccc2nc(N/N=C/c3ccc(Br)cc3Br)sc12`
stdout: met

stdin: Reported zone of inhibition at 75 µg/mL at or above 20 mm? `Cc1cccc2nc(N/N=C/c3ccc([N+](=O)[O-])cc3[N+](=O)[O-])sc12`
stdout: met

stdin: Reported zone of inhibition at 75 µg/mL at or above 20 mm? `Cc1cccc2nc(N/N=C/c3ccc[nH]3)sc12`
stdout: not met

stdin: Reported zone of inhibition at 75 µg/mL at or above 20 mm? `Cc1cccc2nc(N/N=C/c3ccc(Cl)cc3)sc12`
stdout: not met

stdin: Reported zone of inhibition at 75 µg/mL at or above 20 mm? `COc1ccc(/C=N/Nc2nc3cccc(C)c3s2)c(OC)c1`
stdout: not met

stdin: Reported zone of inhibition at 75 µg/mL at or above 20 mm? `Cc1ccc(/C=N/Nc2nc3cccc(C)c3s2)cc1`
stdout: not met

stdin: Reported zone of inhibition at 75 µg/mL at or above 20 mm? `Cc1cccc2nc(N/N=C/c3ccc(Oc4ccccc4)cc3)sc12`
stdout: not met

stdin: Reported zone of inhibition at 75 µg/mL at or above 20 mm? `Cc1cccc2nc(N/N=C/c3cc4ccccc4[nH]3)sc12`
stdout: met

stdin: Reported zone of inhibition at 75 µg/mL at or above 20 mm? `Cc1cccc2nc(N/N=C/c3ccc(F)cc3F)sc12`
stdout: not met

###

- Tested on: Bacillus subtilis
- assay.notes: Antibacterial activity against Bacillus subtilis at 25 ug/ml after 24 hrs by agar well diffusion method
- Format: functional
- measurement.parameters: read-out: DIZ
Assign zone of inhibition at 25 µg/mL to each entry below.
Express it in mm; write the number only.

stdin: # input compound: `COc1cc(/C=N/Nc2nc3cccc(C)c3s2)cc(Br)c1O` ; wanted: its zone of inhibition at 25 µg/mL
stdout: 5

stdin: # input compound: `Cc1cccc2nc(N/N=C/c3ccc(F)cc3)sc12` ; wanted: its zone of inhibition at 25 µg/mL
stdout: 6

stdin: # input compound: `COc1ccc(/C=N/Nc2nc3cccc(C)c3s2)cc1Br` ; wanted: its zone of inhibition at 25 µg/mL
stdout: 4

stdin: # input compound: `Cc1cccc2nc(N/N=C/c3ccc(O)cc3Br)sc12` ; wanted: its zone of inhibition at 25 µg/mL
stdout: 7

stdin: # input compound: `Cc1cccc2nc(N/N=C/c3ccc(Cl)cc3)sc12` ; wanted: its zone of inhibition at 25 µg/mL
stdout: 7

stdin: # input compound: `COc1cc(/C=N/Nc2nc3cccc(C)c3s2)ccc1O` ; wanted: its zone of inhibition at 25 µg/mL
stdout: 15

stdin: # input compound: `Cc1cccc2nc(N/N=C/c3ccc(O)cc3)sc12` ; wanted: its zone of inhibition at 25 µg/mL
stdout: 11

stdin: # input compound: `Cc1cccc2nc(N/N=C/c3ccc(O)cc3O)sc12` ; wanted: its zone of inhibition at 25 µg/mL
stdout: 12

stdin: # input compound: `Cc1cccc2nc(N/N=C/c3ccccc3)sc12` ; wanted: its zone of inhibition at 25 µg/mL
stdout: 5

stdin: # input compound: `COc1ccc(/C=N/Nc2nc3cccc(C)c3s2)cc1` ; wanted: its zone of inhibition at 25 µg/mL
stdout: 13

stdin: # input compound: `Cc1cccc2nc(N/N=C/c3cc(O)c(O)c(O)c3)sc12` ; wanted: its zone of inhibition at 25 µg/mL
stdout: 14

stdin: # input compound: `Cc1cccc2nc(N/N=C/c3ccc([N+](=O)[O-])cc3[N+](=O)[O-])sc12` ; wanted: its zone of inhibition at 25 µg/mL
stdout: 3
